apparent KD of MS2 coat protein by entry:
# Test system: MS2 coat protein
# assayProcedure: apparent KD of MS2 coat protein; designed switch direction (-1 OFF switch, 1 ON switch): -1; higher = weaker reporter binding
# testContext: Eterna round: R95; input ligand: FMN 200 uM
Write it as a number; the unit nM goes unstated.

Here are 6 sequences together with their reported answers.
macromoleculeSequence: GAAAAGGAAGGAUAUACGAAAAAAAAGGGUAGAAAAAAAACACAUGAGGAUCACCCAUGUAGAAGGUCCAAAAG [salish99_ex2_r3_092] (puzzle: Exclusion 2)
apparent KD of MS2 coat protein [nM]: 151
--
macromoleculeSequence: CAGUACUACAAGCUAAGGGACAUGAGGAUCACCCAUGUUCGUCUUAUUGAUCUAGGUACGCUGACGUACCUAGAUCU [JL-sv1-2.18 Brourd mod] (puzzle: Sensor v3, turn-off variant 1)
apparent KD of MS2 coat protein [nM]: 13.6
--
macromoleculeSequence: AGUUGGCGAGGAUAUACAUGAGGAUCACCCAUGUGAGAGAAAAAAGUGAGGAAGAAAAGUAGAAGGCGCUGACU [salish99_ex3_r3_039] (puzzle: Exclusion 3)
apparent KD of MS2 coat protein [nM]: 313
--
macromoleculeSequence: GGUACUAACACGAGAGUGUUAGUACAAUAAGCUUGUGUUACAUGAGGAUCACCCAUGUCCUCAUAAGCUCGUCUUAU [Mat - Sensor v3 - Turn-off var 2 - D57] (puzzle: Sensor v3, turn-off variant 2)
apparent KD of MS2 coat protein [nM]: 107
--
macromoleculeSequence: UUUUAGAGAGGAUAUAUAUUGUGAAACAUGAGGAUCACCCAUGUAAUAAUAUGGAUAUAAAUAGAAGGCUCAUUUA [Mat - Exclusion 5 - JL mod - D8] (puzzle: Exclusion 5)
apparent KD of MS2 coat protein [nM]: 25.7
--
macromoleculeSequence: AGUCCAUAUGUUAGGAUAUGCAACUAGCCAUUGUAGCAGAAGGAACAUGAGGAUCACCCAUGUACAAAGACCCG [Biinvees] (puzzle: Brourd's mod of Exclusion 4)
apparent KD of MS2 coat protein [nM]: 33.6

**Query** Checklist item: apparent KD of MS2 coat protein tested on MS2 coat protein, entry UAUUAGCAAGCGAGAUCCCACAUGAGGAUCACCCAUGUGCUCGUCUUAUAAGGUACUGUGACGAAAGUCACGGUACC [Sensor 3, v1 - 91] (puzzle: Sensor v3, turn-off variant 1) , value?
**Result** 12.6

**Query** Checklist item: apparent KD of MS2 coat protein tested on MS2 coat protein, entry CGUUGGCGAGGAUAUACAUGAGGAUCACCCAUGUGAGAGAAAAAAGUGAGGAAGAAAAGUAGAAGGCGCUGACC [salish99_ex3_r3_049] (puzzle: Exclusion 3) , value?
**Result** 110

**Query** Checklist item: apparent KD of MS2 coat protein tested on MS2 coat protein, entry AAACCUGCCCAUGACCGCAAGCUUUUUGCUUGUCUCACCACAUGAGGAUCACCCAUGUGACAUGGGCUCCUUAUAAA [Orvesovera] (puzzle: Sensor v3, turn-off variant 2) , value?
**Result** 13.7

* * *

# Test system: MS2 coat protein
# assayProcedure: apparent KD of MS2 coat protein; designed switch direction (-1 OFF switch, 1 ON switch): 1; higher = weaker reporter binding
# testContext: input ligand: microRNA oligo, concentration not stated
apparent KD of MS2 coat protein by entry:
Write it as a number; the unit nM goes unstated.

Here are 2 sequences together with their reported answers.
macromoleculeSequence: GCAGGACGAUAAAACAUCUCACAUGAGGAUCACCCAUGUCGUGAGGAUAUGGAUCCUAAUUGGAUCCAGAAGGCAUGGUCCUGC [Fiskers NG3ss - 24] (Eterna round: R96, puzzle: Same State NG 3)
metricName: apparent KD of MS2 coat protein
readoutUnits: nM
resultNumber: 13.1
//
macromoleculeSequence: GCUGCAAAGGCAGGAUAUGGGUCCAGAGCGCAAAUGCGCUCUGGUACAUGAGGAUCACCCAUGUCCCAGAAGGGCCCAAGCAGC [Inleedbi] (Eterna round: R96, puzzle: Same State NG 2)
metricName: apparent KD of MS2 coat protein
readoutUnits: nM
resultNumber: 61.3

Field: next sequence
**Query** Quick one: apparent KD of MS2 coat protein of UAUUAGAUCCGAGGAUAUCCUUAUAAGAAACAUGAGGAUCACCCAUGUAAAGGGAAUUAUUUGUAGGAGAAGGCGGAUUUAGUU [JR_SSNG2_Sub055] (Eterna round: R96, puzzle: Same State NG 2) ?
**Result** 23
